Ref: paper PMC5041986

System: RT-112 cells
ASSAY_OVERVIEW: MTT cell viability assay
Assay type: cell-based
REPORTED_CONDITIONS: RT-112, 5 μM, 72 h, mean
ENDPOINT: Viability (% of control cells) RT-112 (5 μM)

# MOLECULE, MEASURED_VALUE
data = [
    ("COc1c(Cl)c(NC(=O)N(C)c2cc(-c3ccc(F)cc3)ncn2)c(Cl)c(OC)c1Cl [MPT0L155]", "92.6 % of control cells"),
    ("CCN1CCN(c2ccc(Nc3ncnc(N(C)C(=O)Nc4c(Cl)c(OC)c(Cl)c(OC)c4Cl)n3)cc2)CC1 [MPT0L145]", "33.4 % of control cells"),
    ("CCN1CCN(c2ccc(Nc3cc(N(C)C(=O)Nc4c(Cl)c(OC)c(Cl)c(OC)c4Cl)ncn3)cc2)CC1 [MPT0L090]", "52.6 % of control cells"),
]

(Q) // returns reported Viability (% of control cells) RT-112 (5 μM) for input COc1c(Cl)c(NC(=O)N(C)c2cc(-c3ccc(Cl)cc3)ncn2)c(Cl)c(OC)c1Cl [MPT0L156]
(A) 98.3 % of control cells

(Q) Query (molecule): CCN1CCN(c2ccc(-c3cc(N(C)C(=O)Nc4c(Cl)c(OC)c(Cl)c(OC)c4Cl)ncn3)cc2)CC1 [MPT0L182] ; field requested: Viability (% of control cells) RT-112 (5 μM)
(A) 95.6 % of control cells
